assayNotes: Metabolic (microsomal) stability assay, human liver microsomes (HLM)
Assay type: in vitro ADME
runConditions: 1 μM, predicted clearance as percent of liver blood flow
testReadout: HLM QH [%] (%)

[
  {
    "structureSmilesString": "COc1c(OCC2(N(C)C)COC2)nc(-c2noc3c2CCC[C@@]32CCCc3sc(N)c(C#N)c32)nc1O[C@@H](C)[C@@H]1CCCN1C",
    "unit": "%",
    "reportedValue": 46
  }
]

A = C[C@H](Oc1cc(N[C@H]2CCOC2)nc(-c2onc3c2CCC[C@@]32CCCc3sc(N)c(C#N)c32)n1)[C@@H]1CCCN1C
B = C[C@H](Oc1cc(Nc2cccnn2)nc(-c2noc3c2CCC[C@@]32CCCc3sc(N)c(C#N)c32)n1)[C@@H]1CCCN1C
input: Dear colleague, could you let me know whether A or B has the lower recorded HLM QH [%]? Thanks. Selection: enter the item's label.
output: A
